Provide the recorded residual activity at 10 µM for the entries that follow.
# system under test: CYP3A4 (Homo sapiens, UniProt P08684)
# Sequence (P08684 whole entry): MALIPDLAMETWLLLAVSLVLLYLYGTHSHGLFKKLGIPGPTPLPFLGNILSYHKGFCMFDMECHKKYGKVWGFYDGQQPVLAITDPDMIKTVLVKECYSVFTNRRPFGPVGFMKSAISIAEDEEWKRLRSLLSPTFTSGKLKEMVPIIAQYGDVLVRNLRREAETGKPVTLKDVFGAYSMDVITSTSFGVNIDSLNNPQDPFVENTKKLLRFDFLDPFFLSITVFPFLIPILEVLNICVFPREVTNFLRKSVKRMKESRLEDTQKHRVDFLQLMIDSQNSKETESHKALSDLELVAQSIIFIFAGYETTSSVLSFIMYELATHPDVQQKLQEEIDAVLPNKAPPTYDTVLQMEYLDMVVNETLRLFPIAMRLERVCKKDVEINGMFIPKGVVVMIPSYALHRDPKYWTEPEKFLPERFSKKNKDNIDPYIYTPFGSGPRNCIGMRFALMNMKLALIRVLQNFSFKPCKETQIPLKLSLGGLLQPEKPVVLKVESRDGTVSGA
# assay explanation: Inhibition of CYP3A4 at 10 uM by fluorimetry assay in presence of NADP; values are per cent of control
State just the number; it will be interpreted in %.

Request: Report measured residual activity at 10 µM; entry is N[C@@H](CC(=O)N1N=CCC1C(=O)NCc1ccccc1)Cc1cc(F)c(F)cc1F (stereo not given in full)
Response: 18.8

Request: Report measured residual activity at 10 µM; entry is Nc1ccc(CNC(=O)C2CC=NN2C(=O)C[C@H](N)Cc2cc(F)c(F)cc2F)cc1 (stereo not given in full)
Response: 4.5

Request: Report measured residual activity at 10 µM; entry is N[C@@H](CC(=O)N1N=CCC1C(=O)Nc1ccc(OCC(=O)O)cc1)Cc1cc(F)c(F)cc1F (stereo not given in full)
Response: 59.3

Request: Report measured residual activity at 10 µM; entry is N[C@@H](CC(=O)N1N=CCC1C(=O)NCc1ccc(C(=O)O)cc1)Cc1cc(F)c(F)cc1F (stereo not given in full)
Response: 62

Request: Report measured residual activity at 10 µM; entry is CCOC(=O)COc1ccc(NC(=O)C2CC=NN2C(=O)C[C@H](N)Cc2cc(F)c(F)cc2F)cc1 (stereo not given in full)
Response: 6.9
